Molecular target: Human Factor D (Homo sapiens (Human), UniProt P00746)
Sequence (P00746 26-253): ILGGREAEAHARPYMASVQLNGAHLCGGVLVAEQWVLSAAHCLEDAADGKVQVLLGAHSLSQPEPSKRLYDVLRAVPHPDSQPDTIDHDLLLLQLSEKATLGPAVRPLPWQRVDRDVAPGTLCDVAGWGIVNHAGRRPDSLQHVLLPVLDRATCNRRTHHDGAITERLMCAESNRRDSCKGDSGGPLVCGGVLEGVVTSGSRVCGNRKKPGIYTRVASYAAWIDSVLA
Assay: Human Factor D assay (Z-L-Lys-SBzl / DTNB, absorbance at 405 nm)
Type: biochemical
Conditions: Table 3; Human Factor D 80 nM, assay of Example 13
pIC50: −log10 of the molar value.

| compound | system-name | pIC50 |
| --- | --- | --- |
| NC(=O)c1nn(CC(=O)N2C[C@H](F)C[C@H]2C(=O)Nc2cccc(Br)n2)c2cc(S(F)(F)(F)(F)F)ccc12 | Human Factor D (Homo sapiens (Human), UniProt P00746) | > 6.00 |
| NC(=O)c1nn(CC(=O)N2C[C@H](F)C[C@H]2C(=O)Nc2cccc(-c3ccccc3Cl)c2F)c2cn[nH]c12 | Human Factor D (Homo sapiens (Human), UniProt P00746) | > 6.00 |
| NC(=O)c1nn(CC(=O)N2C[C@H](F)C[C@H]2C(=O)Nc2cccc(-c3cnc4nc[nH]c4c3Cl)c2F)c2ccccc12 | Human Factor D (Homo sapiens (Human), UniProt P00746) | > 6.00 |
| CC(=O)c1cn(CC(=O)N2C[C@H](F)C[C@H]2C(=O)Nc2cccc(Br)n2)c2ccc(S(C)(=O)=NC(=O)OC(C)(C)C)cc12 (stereo partly shown) | Human Factor D (Homo sapiens (Human), UniProt P00746) | > 6.00 |
| NC(=O)c1cn(CC(=O)N2C[C@H](F)C[C@H]2C(=O)Nc2cccc(-c3ccccc3Cl)c2F)n2ccnc12 | Human Factor D (Homo sapiens (Human), UniProt P00746) | 5.00 to 6.00 |
| CC(=O)c1nn(CC(=O)N2[C@@H]3C[C@@H]3C[C@H]2C(=O)Nc2cccc(-c3ccc4[nH]cnc4c3Cl)c2F)c2ccccc12 | Human Factor D (Homo sapiens (Human), UniProt P00746) | > 6.00 |
| Cc1nc2c(Cl)c(-c3cccc(NC(=O)[C@@H]4C[C@@H](F)CN4C(=O)Cn4nc(C(N)=O)c5ccccc54)c3F)ccc2[nH]1 | Human Factor D (Homo sapiens (Human), UniProt P00746) | > 6.00 |
| CC(=O)c1cn(CC(=O)N[C@H](C(=O)Nc2cccc(-c3ccccc3Cl)c2F)[C@@H](C)O)c2ccccc12 | Human Factor D (Homo sapiens (Human), UniProt P00746) | > 6.00 |
| NC(=O)c1nn(CC(=O)N2C[C@H](F)C[C@H]2C(=O)Nc2cccc(-c3ccc4[nH]c(C(F)(F)F)nc4c3Cl)c2F)c2ccccc12 | Human Factor D (Homo sapiens (Human), UniProt P00746) | > 6.00 |
| CC(C)(C)OC(=O)N=S(C)(=O)c1cccc(-c2cccc(NC(=O)[C@@H]3C[C@@H](F)CN3C(=O)Cn3nc(C(N)=O)c4ccccc43)c2F)c1 (stereo partly shown) | Human Factor D (Homo sapiens (Human), UniProt P00746) | 5.00 to 6.00 |
| NC(=O)c1cc(CC(=O)N2C[C@H](F)C[C@H]2C(=O)Nc2cccc(-c3ccccc3Cl)c2F)ccc1Cl | Human Factor D (Homo sapiens (Human), UniProt P00746) | 5.00 to 6.00 |
| COc1cc(Br)cc(CC(=O)N2C[C@H](F)C[C@H]2C(=O)Nc2cccc(-c3ccccc3Cl)c2F)c1 | Human Factor D (Homo sapiens (Human), UniProt P00746) | > 6.00 |
| NC(=O)c1nn(CC(=O)N2C[C@H](F)C[C@H]2C(=O)Nc2cccc(-c3ccc4scnc4c3)c2F)c2ccccc12 | Human Factor D (Homo sapiens (Human), UniProt P00746) | > 6.00 |
